# Test system: NCI-H522
# experimental.details: Growth inhibition of human NCI-H522 cells after 48 hrs by sulforhodamine B assay
# Format: functional
# assay.setup: NCI-H522, 48 h
Provide the recorded GI50 for the entries that follow.
// note: answer is a bare numeric in nM

The compound listed as COc1cc(-c2nn(-c3cccc(NC(=O)Nc4cc(C(F)(F)F)cc(C(F)(F)F)c4)c3)cc2-c2ccncc2)ccc1Cl shows GI50 equal to 623

In plain terms, O=C(Nc1cccc(-n2cc(-c3ccncc3)c(-c3ccc(Cl)c(O)c3)n2)c1)c1ccc(N2CCOCC2)c(C(F)(F)F)c1 has a documented GI50 of 2310

Looking up O=C(Nc1cccc(-n2cc(-c3ccncc3)c(-c3ccc(Cl)c(O)c3)n2)c1)Nc1ccc(Cl)c(Cl)c1 , I found its GI50 recorded as 1190

So for COc1cc(-c2nn(-c3cccc(NC(=O)c4ccc(Cl)c(C(F)(F)F)c4)c3)cc2-c2ccncc2)ccc1Cl , the logged GI50 turned out to be 1040

* * *

# Tested on: MOLT-4
# experimental.details: Growth inhibition of human MOLT4 cells assessed as cell growth at 5X10'-7 M after 48 hrs by sulforhodamine B assay
# Assay type: functional
# assay.setup: MOLT-4, 48 h, read-out: Activity
Provide the recorded growth at 0.5 µM for the entries that follow.
Supply the numeric figure in %, leaving out any unit text.

Measured growth at 0.5 µM of O=C(Nc1cccc(-n2cc(-c3ccncc3)c(-c3ccc(Cl)c(O)c3)n2)c1)c1ccc(N2CCOCC2)c(C(F)(F)F)c1 : 87

Sure, the documented growth at 0.5 µM for O=C(Nc1cccc(-n2cc(-c3ccncc3)c(-c3ccc(Cl)c(O)c3)n2)c1)Nc1cc(C(F)(F)F)cc(C(F)(F)F)c1 is 81

# growth at 0.5 µM of COc1cc(-c2nn(-c3cccc(NC(=O)Nc4cc(C(F)(F)F)cc(C(F)(F)F)c4)c3)cc2-c2ccncc2)ccc1Cl = 77

So for COc1cc(-c2nn(-c3cccc(NC(=O)Nc4cccc(C(F)(F)F)c4)c3)cc2-c2ccncc2)ccc1Cl , the logged growth at 0.5 µM turned out to be 74

* * *

For each record, write down the corresponding TGI.
# Test system: UACC-62
# experimental.details: Growth inhibition of human UACC62 cells after 48 hrs by sulforhodamine B assay
# Assay type: functional
# assay.setup: UACC-62, 48 h

Record O=C(Nc1cccc(-n2cc(-c3ccncc3)c(-c3ccc(Cl)c(O)c3)n2)c1)c1ccc(N2CCOCC2)c(C(F)(F)F)c1 . Reported TGI: 18.4 µM

Measured TGI of COc1cc(-c2nn(-c3cccc(NC(=O)Nc4ccc(Cl)c(Cl)c4)c3)cc2-c2ccncc2)ccc1Cl : 1.86 µM

// TGI value for COc1cc(-c2nn(-c3cccc(NC(=O)c4cccc(C(F)(F)F)c4)c3)cc2-c2ccncc2)ccc1Cl : > 50 µM

Looking up COc1cc(-c2nn(-c3cccc(NC(=O)c4ccc(Cl)c(C(F)(F)F)c4)c3)cc2-c2ccncc2)ccc1Cl , I found its TGI recorded as > 32.5 µM

* * *

Could you please report measured LC50 (50% lethal concentration) for the items listed next?
# Test system: BT-549
# experimental.details: Growth inhibition of human BT549 cells after 48 hrs by sulforhodamine B assay
# Type: functional
# assay.setup: BT-549, 48 h

LC50 (50% lethal concentration) recorded for this molecule, COc1cc(-c2nn(-c3cccc(NC(=O)Nc4ccc(Cl)c(Cl)c4)c3)cc2-c2ccncc2)ccc1Cl , is > 50 µM

So for COc1cc(-c2nn(-c3cccc(NC(=O)c4ccccc4)c3)cc2-c2ccncc2)ccc1Cl , the logged LC50 (50% lethal concentration) turned out to be > 100 µM

Record summary for O=C(Nc1cccc(-n2cc(-c3ccncc3)c(-c3ccc(Cl)c(O)c3)n2)c1)c1ccc(N2CCOCC2)c(C(F)(F)F)c1 : reported LC50 (50% lethal concentration) = > 50 µM

Measured LC50 (50% lethal concentration) of COc1cc(-c2nn(-c3cccc(NC(=O)c4ccc(N5CCOCC5)c(C(F)(F)F)c4)c3)cc2-c2ccncc2)ccc1Cl : > 100 µM

Measured values drawn from ChEMBL document CHEMBL2440076 for this set.
